Please provide measured relative KD to parent for the entries that follow.
Biological target: T1, His-tagged CEACAM1 (human, UniProt P13688 35-428)
T1 construct: 45 kDa SPR analyte; also called CEACAM1-HIS; CEACAM1 analyte
T1 sequence: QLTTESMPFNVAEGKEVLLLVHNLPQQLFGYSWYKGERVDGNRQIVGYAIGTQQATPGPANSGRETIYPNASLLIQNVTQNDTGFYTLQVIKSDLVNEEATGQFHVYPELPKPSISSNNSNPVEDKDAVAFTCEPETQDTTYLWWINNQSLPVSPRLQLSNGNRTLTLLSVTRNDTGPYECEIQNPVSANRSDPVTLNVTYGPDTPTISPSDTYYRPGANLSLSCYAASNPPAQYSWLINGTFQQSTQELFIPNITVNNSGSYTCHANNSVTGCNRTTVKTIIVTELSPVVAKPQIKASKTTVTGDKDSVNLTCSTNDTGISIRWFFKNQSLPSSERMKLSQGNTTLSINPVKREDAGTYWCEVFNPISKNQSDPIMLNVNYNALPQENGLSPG
Experiment: SPR single-cycle, purified IgG captured
Answers are plain numbers.

Take a look at these entries with their results.
In: Using known records, supply relative KD to parent for CP09B03/CP08E05 (antibody, IgG4, V domains shown, IgG4 (S241P), kappa) VH: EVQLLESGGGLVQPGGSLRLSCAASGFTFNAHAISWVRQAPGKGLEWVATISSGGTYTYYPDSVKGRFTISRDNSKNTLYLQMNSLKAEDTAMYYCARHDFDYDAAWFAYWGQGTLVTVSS VL: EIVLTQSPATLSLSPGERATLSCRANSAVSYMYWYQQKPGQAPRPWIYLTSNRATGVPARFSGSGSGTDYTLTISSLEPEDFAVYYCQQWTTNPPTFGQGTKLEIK
Out: 5.3

In: Consider the binder CP09C02/CP08E05 (antibody, IgG4, V domains shown, IgG4 (S241P), kappa) VH: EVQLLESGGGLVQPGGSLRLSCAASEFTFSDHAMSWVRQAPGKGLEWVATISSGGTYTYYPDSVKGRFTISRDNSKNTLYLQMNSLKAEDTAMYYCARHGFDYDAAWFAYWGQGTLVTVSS VL: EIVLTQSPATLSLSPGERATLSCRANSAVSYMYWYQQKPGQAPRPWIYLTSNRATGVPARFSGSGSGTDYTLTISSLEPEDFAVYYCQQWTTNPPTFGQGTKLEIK . State its measured relative KD to parent.
Out: 6.6

In: Dear colleague, please send me the reported relative KD to parent for CP09C02/CP08F05 (antibody, IgG4, V domains shown, IgG4 (S241P), kappa) VH: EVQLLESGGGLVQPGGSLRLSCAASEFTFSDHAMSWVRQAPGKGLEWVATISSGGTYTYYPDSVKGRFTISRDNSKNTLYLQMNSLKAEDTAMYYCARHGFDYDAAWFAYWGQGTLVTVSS VL: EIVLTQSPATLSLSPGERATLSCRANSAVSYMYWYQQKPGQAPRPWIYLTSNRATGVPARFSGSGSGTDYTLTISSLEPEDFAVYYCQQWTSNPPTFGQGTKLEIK when you can.
Out: 5

Consider the record given below.
In: Annotate the binder CP08H03/CP08E05 (antibody, IgG4, V domains shown, IgG4 (S241P), kappa) VH: EVQLLESGGGLVQPGGSLRLSCAASGFIFSSHGMSWVRQAPGKGLEWVATISSGGTYTYYPDSVKGRFTISRDNSKNTLYLQMNSLKAEDTAMYYCARHDFDYFPYWFAHWGQGTLVTVSS VL: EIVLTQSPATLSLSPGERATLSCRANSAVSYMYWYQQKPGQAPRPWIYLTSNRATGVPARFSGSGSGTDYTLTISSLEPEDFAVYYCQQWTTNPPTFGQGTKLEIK with its measured relative KD to parent.
Out: 4.5

Reference for the values: patent US20250074980A1
